molecular target: T1, murine GPC3-his protein (Sino Biological, Cat. No. 50989-M08B) (murine, UniProt Q8CFZ4 25-558); assay: ELISA, coated murine GPC3-His;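 note: antigen coated on plates at 1 µg/mL, test antibody bound for 2 h at 37 °C, detected with HRP-conjugated secondary antibody and TMB substrate after acid stop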
T1 construct: Bought protein; also called murine GPC3 protein
T1 sequence (Q8CFZ4 25-558 limits assumed): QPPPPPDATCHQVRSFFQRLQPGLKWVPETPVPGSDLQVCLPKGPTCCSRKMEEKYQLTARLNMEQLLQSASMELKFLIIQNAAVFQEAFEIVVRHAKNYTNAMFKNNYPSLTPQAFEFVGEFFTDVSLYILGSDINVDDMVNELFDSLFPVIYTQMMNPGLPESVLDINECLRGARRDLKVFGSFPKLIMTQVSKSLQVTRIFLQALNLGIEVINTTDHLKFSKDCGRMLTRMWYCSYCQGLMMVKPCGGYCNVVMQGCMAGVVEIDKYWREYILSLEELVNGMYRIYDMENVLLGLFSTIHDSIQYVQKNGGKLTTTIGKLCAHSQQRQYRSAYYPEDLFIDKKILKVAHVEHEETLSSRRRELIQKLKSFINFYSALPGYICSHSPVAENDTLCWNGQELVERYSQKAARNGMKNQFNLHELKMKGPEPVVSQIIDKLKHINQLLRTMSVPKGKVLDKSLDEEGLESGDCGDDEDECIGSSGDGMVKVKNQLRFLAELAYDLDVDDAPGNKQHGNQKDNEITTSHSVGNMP
# OD450 at 100 nM antibody binned as low interval = under 0.08 OD450 nm, middle interval = from 0.08 OD450 nm up to 0.2 OD450 nm, high interval = 0.2 OD450 nm and over

input: Bin this entry: F2.169.2 human-murine chimeric antibody (antibody, human IgG1, kappa, V domains shown) VH: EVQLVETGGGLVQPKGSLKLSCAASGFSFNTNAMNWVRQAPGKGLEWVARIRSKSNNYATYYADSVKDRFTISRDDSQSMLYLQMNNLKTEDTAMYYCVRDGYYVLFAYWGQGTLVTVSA VL: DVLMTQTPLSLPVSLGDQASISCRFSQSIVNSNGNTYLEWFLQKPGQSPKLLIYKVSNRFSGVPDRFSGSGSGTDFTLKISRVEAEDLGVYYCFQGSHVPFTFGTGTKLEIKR
output: high interval

input: Category lookup for the binder F1.136.7 human-murine chimeric antibody (antibody, human IgG1, kappa, V domains shown) VH: EVQLQQSGPVMVKPGPSVKISCQTSGFTFTDYYIHWVKQSHGKSLEWIGLVFPYDGGTNYNQKFKDKATLTLDTSSSTAYMELNSLTSEDSAVYYCARAGGFSYALNYWGQGTSVTVSS VL: DIQMTQSPSSLSASLGGKVTITCKASQDINNYIAWYQHKPGKGPRLLIHFTSTLQPGIPSRFSGSGSGRDYSFSISNLEPEDIATYYCLQYDNLLLTFGAGTKLELKR
output: middle interval

input: Textbook exercise: identify the category of the binder given here, F2.154.1 human-murine chimeric antibody (antibody, human IgG1, kappa, V domains shown) VH: QVQLQQSGAELVRPGASVKLSCKASGYRFTDYEMHWVKQTPVHGLEWIGTIDPETGNTAYTQKFMDKATLTADKSSSTAYMELRSLTSEDSAVYYCTRGYSFTYWGQGTLATVSA VL: DVLMTQTPLSLPVSLGDQASISCRSSQNIVHSNGNTYLQWYLQKPGQSPKLLIFKVSNRFSGVPDRFSGSGSGTDFTLKISRVEAEDLGVYYCFQGSHVPFTFGTGTKLEIKR , according to its measured value.
output: low interval

input: Please indicate the class for F2.39.2 human-murine chimeric antibody (antibody, human IgG1, kappa, V domains shown) VH: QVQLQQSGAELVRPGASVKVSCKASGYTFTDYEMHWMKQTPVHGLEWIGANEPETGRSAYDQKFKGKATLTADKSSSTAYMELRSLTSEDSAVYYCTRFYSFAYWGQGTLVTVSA VL: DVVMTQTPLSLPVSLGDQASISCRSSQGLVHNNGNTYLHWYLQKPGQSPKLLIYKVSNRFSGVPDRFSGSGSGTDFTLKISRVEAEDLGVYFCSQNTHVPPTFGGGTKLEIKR based on its OD450 at 100 nM antibody.
output: low interval

input: Place this binder in its band: F1.92.17 human-murine chimeric antibody (antibody, human IgG1, kappa, V domains shown) VH: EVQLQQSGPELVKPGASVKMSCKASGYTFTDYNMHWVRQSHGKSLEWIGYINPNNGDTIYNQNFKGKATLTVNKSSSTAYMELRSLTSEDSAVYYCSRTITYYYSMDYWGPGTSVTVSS VL: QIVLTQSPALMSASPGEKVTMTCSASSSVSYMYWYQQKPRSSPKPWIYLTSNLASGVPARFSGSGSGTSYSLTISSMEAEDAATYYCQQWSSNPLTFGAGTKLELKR
output: middle interval

input: Which class is correct for the following binder? F1.110.24 human-murine chimeric antibody (antibody, human IgG1, kappa, V domains shown) VH: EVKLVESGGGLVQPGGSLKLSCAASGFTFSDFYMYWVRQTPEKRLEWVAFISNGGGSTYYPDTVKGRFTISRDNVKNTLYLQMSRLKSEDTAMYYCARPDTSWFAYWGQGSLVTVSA VL: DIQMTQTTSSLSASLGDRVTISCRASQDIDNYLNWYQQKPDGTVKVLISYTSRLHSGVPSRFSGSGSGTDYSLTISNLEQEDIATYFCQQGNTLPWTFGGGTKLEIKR
output: high interval

input: Which bin should I file F1.41.17 human-murine chimeric antibody (antibody, human IgG1, kappa, V domains shown) VH: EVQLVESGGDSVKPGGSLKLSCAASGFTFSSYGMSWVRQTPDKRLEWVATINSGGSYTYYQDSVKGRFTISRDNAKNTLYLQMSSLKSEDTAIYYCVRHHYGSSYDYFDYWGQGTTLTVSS VL: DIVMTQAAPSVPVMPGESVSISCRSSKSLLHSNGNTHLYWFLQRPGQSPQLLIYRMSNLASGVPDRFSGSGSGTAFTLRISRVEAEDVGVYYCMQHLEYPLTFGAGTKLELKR under?
output: middle interval

input: Into which bin does this binder go? F1.21.8 human-murine chimeric antibody (antibody, human IgG1, kappa, V domains shown) VH: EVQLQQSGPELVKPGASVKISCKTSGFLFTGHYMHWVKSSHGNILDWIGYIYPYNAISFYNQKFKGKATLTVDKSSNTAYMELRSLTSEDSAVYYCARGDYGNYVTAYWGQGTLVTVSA VL: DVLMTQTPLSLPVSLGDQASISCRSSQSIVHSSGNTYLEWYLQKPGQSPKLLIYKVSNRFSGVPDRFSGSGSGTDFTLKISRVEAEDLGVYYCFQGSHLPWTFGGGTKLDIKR
output: high interval

input: Into which bin does this binder go? F1.9.19 human-murine chimeric antibody (antibody, human IgG1, kappa, V domains shown) VH: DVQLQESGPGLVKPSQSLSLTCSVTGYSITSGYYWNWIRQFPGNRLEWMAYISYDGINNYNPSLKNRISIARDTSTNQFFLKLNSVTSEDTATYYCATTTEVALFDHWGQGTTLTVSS VL: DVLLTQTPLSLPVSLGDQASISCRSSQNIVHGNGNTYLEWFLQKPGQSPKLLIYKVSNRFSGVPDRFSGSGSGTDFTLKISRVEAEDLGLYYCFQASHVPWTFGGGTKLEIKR
output: low interval
